target: Autotaxin (Homo sapiens)
Measurement type: IC50 (nM)

Molecule	Target of assay	Measurement type	Units label	Experimental result
CCn1nc2ncc(N3CCN(CC(=O)N4CC(O)C4)CC3)cc2c1N(C)c1nc(-c2ccc(F)cc2)c(C#N)s1 [US11591342, Compound S-0043]	Autotaxin (Homo sapiens)	IC50	nM	648
